Experiment Notes: Plasma clearance in rat at 100 mg/kg
Type: ADME, organism-based
Parameters: dose 100 mg/kg
Value Type: clearance (mL/min/kg)
Numbers only; they are read as mL/min/kg.

Request: Reported clearance for `CNC(=O)c1ccc2c(c1)OCCc1cc(C(=O)N(C)c3ccc(C(=O)N(C)C)cc3Cl)sc1-2` : what is it?
Response: 36
